Origin of measurements: patent US9464064B2

Molecular target: HCV NS3 helicase NS3h_1b(con1) (Hepatitis C virus genotype 1b, UniProt Q9WMX2)
Construct: truncated C-terminally His-tagged NS3 proteins lacking the N-terminal protease, called NS3h; His-tag (C); made in house
Sequence (Q9WMX2 1192-1657): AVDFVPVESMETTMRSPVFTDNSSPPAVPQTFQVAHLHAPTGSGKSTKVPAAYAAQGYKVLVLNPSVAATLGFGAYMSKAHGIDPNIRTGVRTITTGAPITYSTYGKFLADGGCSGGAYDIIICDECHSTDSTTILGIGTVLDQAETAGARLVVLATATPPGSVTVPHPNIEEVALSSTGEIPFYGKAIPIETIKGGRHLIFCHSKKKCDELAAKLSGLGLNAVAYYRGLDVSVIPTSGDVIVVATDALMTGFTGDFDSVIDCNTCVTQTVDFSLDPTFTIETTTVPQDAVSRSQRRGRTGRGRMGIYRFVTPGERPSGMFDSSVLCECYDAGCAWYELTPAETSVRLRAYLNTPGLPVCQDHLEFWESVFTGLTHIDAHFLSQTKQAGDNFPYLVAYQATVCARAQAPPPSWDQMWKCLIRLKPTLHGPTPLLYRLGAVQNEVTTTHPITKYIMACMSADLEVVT
Assay: MBHA screen of NCI mechanistic set library at 20 μM (percent inhibition, compound interference)
Type: biochemical
Conditions: compounds at 20 μM, MBHA with DNA substrate; calculated from Equation 1
Assay Readout: Inh. (%) (Inhibition)
Give just the number in %; leave the unit off.

# example entries with known answers
[[record]]
compound = "C=C(CN(C)C)C(=O)c1ccccc1Cl.Cl"
measured_target = "HCV NS3 helicase NS3h_1b(con1) (Hepatitis C virus genotype 1b, UniProt Q9WMX2)"
unit_tag = "%"
reported_measurement = 22.9

[[record]]
compound = "C=C1CC(Cn2cc(Br)c(=O)[nH]c2=O)(c2ccc(-c3ccccc3)cc2)OC1=O (centres unmarked)"
measured_target = "HCV NS3 helicase NS3h_1b(con1) (Hepatitis C virus genotype 1b, UniProt Q9WMX2)"
unit_tag = "%"
reported_measurement = 0.4


Record summary for O=[n+]1c2c(n([O-])c3ccccc31)-c1cccc3cccc-2c13 : reported Inh. (%) (Inhibition) = 13.6

Record summary for CCCc1c(Cl)nc(Cl)nc1Cl : reported Inh. (%) (Inhibition) = −0.8

Record summary for CCCCCC(/C=C/[C@@H]1CC(=O)C[C@H]1O[Si](C)(C)C(C)(C)C)OCOCCOC (some centres unmarked) : reported Inh. (%) (Inhibition) = −10.4
